Taken from patent US11078245B2.

- Test system: Colon Ag
- Procedure text: ELISA of NEO-101 binding inhibition by peptides against Colon Ag
- Design: species or system human
Measurement label: Blocking of NEO-101 antibody binding to colon Ag

Sequence content | Val
YSHSVHAIEDNWSPRGGGGS (NPC-1 epitope peptidomimetic) [Peptide 4-1-3-C11, reference compound] | No
YSHSWHTLPESGEVTSGGGS (NPC-1 epitope peptidomimetic) [Peptide 4-1-3-C8] | No
YSHSFPEDYFRYTNQKGGGS (NPC-1 epitope peptidomimetic) [Peptide 4-1-3-C9] | Yes
YSHSSLPDDWFRYINYGGGS (NPC-1 epitope peptidomimetic) [Peptide 4-1-4-C12] | Yes
